Data origin, for the record: the supplement of paper PMC6555819

system: RARg:RXRa (NR concentration 270 nM, RXRa partner concentration 90 nM); assay: PBM binding z-score (relative to random genomic background probes); higher = stronger binding; sequences stand for … in GC…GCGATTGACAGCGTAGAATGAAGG
PBM binding z-score below 4 gives 0; PBM binding z-score at or above it gives 1.

Sequence Record	Label Value
CTCGAAAGGTCCGTTGAGGTGAGTATACGGATAA	0

Entry `TCGAGTAGGTTAGTAGGGGCATTCAGCCAACATA` : is its PBM binding z-score no less than 4?
0

Entry `CTACCAAGGAGAACAAGGTCGTTGATTACTATTC` : is its PBM binding z-score no less than 4?
0

Entry `CCAGACAGTTGAAAGGTAACTCAGTCTGGTACGC` : is its PBM binding z-score no less than 4?
0

----------
tested on: PPARg:RXRa 30nM:10nM, anti-RXR (NR concentration 30 nM, RXRa partner concentration 10 nM); assay: PBM binding z-score (relative to random genomic background probes); higher = stronger binding; sequences stand for … in GC…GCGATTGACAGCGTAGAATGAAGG
Result Type: PBM binding z-score
Answers are plain numbers.

Solved cases below.
Sequence Record	Value Observed
TCTAGTTGGTCAAAGGTCAGACACTCGAAATGCG	11.6
CCTACTGGGCCAAGGTCATTCATCAGTCAAAGCA	1.62
GCCAGCAGGCCATTTGGGTCACTCAATGACGGGC	-0.483
CCTAGCAGGGCAATCTGGGTCACTCAAGGCTTGA	0.319
TAGCCTAGGTCATGCGGGCCAGTAGAGTGTCGGC	0.154
ACAGACAGGTGATGAAGGTAACTCTGGCTATCAT	0.143
GCTTGTAGATCAAGGTTCAGAAAGACTAAGCTAA	3.39
TCATATGGGTAAATGCTAGGTGAAAGTCCGATCT	2.1

State recorded PBM binding z-score for all listed sequences.
1. ATTAGCAGGCCAAGTTTGGGTCACTCAAACAAAG
2. GATACAGGGTCAAGGACAGAGTACGCGTATTGAT
3. AGTCAAAGTTCAGGACGTGGTAACGTAAAGCACG
4. CCTCACGGGTCACGAGGTTATAGCACGACGAGCG

[-0.279, 2.93, 2.07, 2.34]

----------
system: PPARa:RXRa (NR concentration 270 nM, RXRa partner concentration 90 nM); assay: PBM binding z-score (relative to random genomic background probes); higher = stronger binding; sequences stand for … in GC…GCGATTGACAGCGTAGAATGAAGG
PBM binding z-score below 4 gives false; PBM binding z-score at or above it gives true.

Recorded results for 2 sequences are shown here.
Sequence Record	Label Value
CCTTATGGGTCAAGGTTATAGCACGGGTGGTACG	true
CAAACTAGGTCACAGAGGTCAAAATCCGTGCGTA	true

Entry `TGTCTAAGTTCAAAGGTAACGTAAGTATCCACAC` : is its PBM binding z-score no less than 4?
true

Entry `ATCGAAAGGTCGAAGTGAGTATAGAGAAAGGGAA` : is its PBM binding z-score no less than 4?
true

Entry `TCGAGTAGGTTACCAATGGGGCATGCAGCTTTCT` : is its PBM binding z-score no less than 4?
false

Entry `CGAACTAGGTGAAGGACAGTGAATCTCCGCACGC` : is its PBM binding z-score no less than 4?
false
